Assay: Cytotoxicity against L6 rat skeletal myoblasts
Type: cell-based
Conditions: rat, IC50 Cytotox (in brackets)
Procedure: Tests for antiprotozoal activities were carried out using established standard protocols at the Swiss Tropical and Public Health Institute (Swiss TPH, Basel, Switzerland). The assays and the IC50 determinations were performed essentially as described previously. […] The purity of test compounds was assessed by UHPLC/MS analyses and found to be >90% in case of compounds 1–6 and >80% in case of 7. […]
Would you mind telling me the reported IC50 of each entry?
Numbers only, in µM.

Worked set:
Compound | IC50 (µM)
C=CCCC/C=C/C=C/C(=O)NCC(C)C [Compound 3, deca-2E,4E,9-trienoic acid isobutylamide] | 75.3
C/C=C\C#CC#CCC/C=C/C=C/C(=O)NCC(C)C | 72.2

Turning now to a further compound:
# input Sample CCCCCCC/C=C/C=C/C(=O)NCCc1ccc(O)cc1 — what was its IC50?
# output 0.69

###

For each record, write down the corresponding IC50.
Assay: Cytotoxicity against L6 rat skeletal myoblasts
Type: cell-based
Conditions: L6 rat skeletal myoblast cell line; mean of two determinations ± deviation; read-out: IC50 Cytotox
Answers are plain numbers, in µg/mL.

Compound | IC50 / µg/mL
CCCCC/C=C/C=C/C(=O)NCCc1ccccc1 | 7.88

Here is the next item to consider.
# input Name the reported IC50 value associated with the compound COc1cc([C@@H]2c3cc4c(cc3[C@H](O)[C@H]3COC(=O)[C@H]23)OCO4)cc(OC)c1OC [podophyllotoxin, reference compound]
# output 0.008

###

Exercise: for every item that follows, state its recorded IC50.
Assay: Cytotoxicity against L6 rat skeletal myoblasts
Assay type: cell-based
Settings: L6 rat skeletal myoblast cell line; value in μM of pure compound; read-out: IC50 Cytotox (in brackets)
Answers are plain numbers, in µM.

Molecule | Endpoint unit | IC50
CCCCC/C=C/C=C/C(=O)NCCc1ccccc1 | µM | 29.1

Lab note: next molecule to report on.
# input Report IC50 for COc1cc([C@@H]2c3cc4c(cc3[C@H](O)[C@H]3COC(=O)[C@H]23)OCO4)cc(OC)c1OC [podophyllotoxin, reference compound] please.
# output 0.019

###

Test system: L. donovani (MHOM-ET-67/L82 strain, axenic amastigotes)
Test: In vitro antiprotozoal activity against L. donovani
Format: cell-based, Leishmania donovani
Conditions: ratio of cytotoxic (L6) over antiprotozoal IC50 (Ld)
Measurement kind: SI Ld
Give bare numbers.

Compound | SI Ld
C=CCCC/C=C/C=C/C(=O)NCC(C)C [Compound 3, deca-2E,4E,9-trienoic acid isobutylamide] | 3.5
C/C=C\C#CC#CCC/C=C/C=C/C(=O)NCC(C)C | 3.9

Switching to the query record.
# input Form field: reported SI Ld of CCCCC/C=C/C=C/C(=O)NCCc1ccccc1
# output 2.7

###

System: T. b. rhodesiense (STIB 900 strain, bloodstream trypomastigotes)
Assay: In vitro antiprotozoal activity against T. b. rhodesiense
Assay type: cell-based, Trypanosoma brucei rhodesiense
Conditions: Trypanosoma brucei; STIB 900 strain, bloodstream trypomastigotes; value in μM of pure compound; read-out: IC50 Tbr (in brackets)
Description: Tests for antiprotozoal activities were carried out using established standard protocols at the Swiss Tropical and Public Health Institute (Swiss TPH, Basel, Switzerland). The assays and the IC50 determinations were performed essentially as described previously. […] The purity of test compounds was assessed by UHPLC/MS analyses and found to be >90% in case of compounds 1–6 and >80% in case of 7. […]
Measurement kind: IC50 (µM)
Answers are plain numbers, in µM.

I have 2 compounds here; please give me IC50 for each one.
1. CCCCC/C=C/C=C/C(=O)NCCc1ccccc1 [Compound 4]
2. CCCCCCC/C=C/C=C/C(=O)NCCc1ccc(O)cc1 [Compound 7]

# output
[14.9, 7.17]

Please look at the items below and tell me IC50 for each one, in order.
1. C=CCCC/C=C/C=C/C(=O)NCC(C)C [Compound 3, deca-2E,4E,9-trienoic acid isobutylamide]
2. C/C=C\C#CC#CCC/C=C/C=C/C(=O)NCC(C)C [Compound 6]

# output
1: 13.2; 2: 23.7
